Cited source for all entries: PubChem BioAssay

Molecular target: L-lactate dehydrogenase (Plasmodium falciparum (isolate CDC / Honduras)) (UniProt Q27743)
Sequence (Q27743 whole entry, looked up): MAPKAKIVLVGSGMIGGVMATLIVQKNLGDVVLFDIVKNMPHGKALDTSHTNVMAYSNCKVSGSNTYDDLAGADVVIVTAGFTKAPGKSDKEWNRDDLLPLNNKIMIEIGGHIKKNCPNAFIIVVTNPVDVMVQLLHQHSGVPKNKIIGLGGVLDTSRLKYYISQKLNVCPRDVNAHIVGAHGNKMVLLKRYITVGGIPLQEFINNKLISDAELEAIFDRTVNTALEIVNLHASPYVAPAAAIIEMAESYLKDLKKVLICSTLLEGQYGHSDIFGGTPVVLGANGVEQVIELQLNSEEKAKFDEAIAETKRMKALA
Experiment: PfLDH activity inhibition – cell lysate, 3D7 strain, counter-screen for P. falciparum growth inhibition project (AID 2304);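 also: 0% = vehicle and 100% = reference inhibitor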
Conditions: P. falciparum 3D7 crude extract, LDH APAD/NBT absorbance; at 2 µM; stronger effect = higher value
result-type: inhibition (%)

[
  {
    "compound": "CCOC(=O)CCCCCNC[C@H](O)c1ccccc1",
    "tgt": "L-lactate dehydrogenase (Plasmodium falciparum (isolate CDC / Honduras)) (UniProt Q27743)",
    "test-result": 5
  },
  {
    "compound": "O=S(=O)(c1cccc(Cl)c1F)N(CCC(O)(C(F)(F)F)C(F)(F)F)Cc1cccc(O)c1",
    "tgt": "L-lactate dehydrogenase (Plasmodium falciparum (isolate CDC / Honduras)) (UniProt Q27743)",
    "test-result": 0
  },
  {
    "compound": "CCN(CC)CCN(CCN(CC)CC)c1ccc(-c2nc3cc(Cl)c(Cl)cc3[nH]2)cc1",
    "tgt": "L-lactate dehydrogenase (Plasmodium falciparum (isolate CDC / Honduras)) (UniProt Q27743)",
    "test-result": 2
  },
  {
    "compound": "O=C(/C=C/c1ccc(Cl)c(Cl)c1)NCCCCCCN1CCCN(C(=O)Nc2ccc(C(F)(F)F)cc2)CC1",
    "tgt": "L-lactate dehydrogenase (Plasmodium falciparum (isolate CDC / Honduras)) (UniProt Q27743)",
    "test-result": -8
  },
  {
    "compound": "Cc1noc(C)c1-c1ccc(C(=C2CCCCCC2)c2ccc(O)cc2)cc1",
    "tgt": "L-lactate dehydrogenase (Plasmodium falciparum (isolate CDC / Honduras)) (UniProt Q27743)",
    "test-result": 7
  },
  {
    "compound": "C=CCOc1ccccc1CNCC(O)c1cc(Br)cs1 (centres undefined)",
    "tgt": "L-lactate dehydrogenase (Plasmodium falciparum (isolate CDC / Honduras)) (UniProt Q27743)",
    "test-result": -4
  },
  {
    "compound": "COc1cccc2cc(C(=O)N[C@@H](CC(C)C)C(=O)N[C@H](/C=N/N3CCCC3=O)Cc3ccccc3)oc12",
    "tgt": "L-lactate dehydrogenase (Plasmodium falciparum (isolate CDC / Honduras)) (UniProt Q27743)",
    "test-result": 5
  },
  {
    "compound": "CCN(CC)CCN(Cc1ccc(-c2ccc(C(F)(F)F)cc2)cc1)C(=O)Cn1c(CCc2ccc(F)c(F)c2F)nc(=O)c2cccnc21",
    "tgt": "L-lactate dehydrogenase (Plasmodium falciparum (isolate CDC / Honduras)) (UniProt Q27743)",
    "test-result": -3
  },
  {
    "compound": "COc1c(C)[nH]c(C)c(-c2ccc(Oc3cccc(C(F)(F)F)c3)cc2)c1=O",
    "tgt": "L-lactate dehydrogenase (Plasmodium falciparum (isolate CDC / Honduras)) (UniProt Q27743)",
    "test-result": 3
  },
  {
    "compound": "COc1ccc(-c2cccc(NC(=O)c3ccc(C#N)cc3)c2)cc1CN1CCCC1",
    "tgt": "L-lactate dehydrogenase (Plasmodium falciparum (isolate CDC / Honduras)) (UniProt Q27743)",
    "test-result": -5
  },
  {
    "compound": "Cc1[nH]c(C)c(-c2ccc(OCc3ccc(OC(F)(F)F)cc3)nc2)c(=O)c1Cl",
    "tgt": "L-lactate dehydrogenase (Plasmodium falciparum (isolate CDC / Honduras)) (UniProt Q27743)",
    "test-result": -3
  },
  {
    "compound": "Cc1ccc(NC(=O)Nc2cccc(Cl)c2)cc1-c1ccc(C(=O)Nc2ccncc2)cc1",
    "tgt": "L-lactate dehydrogenase (Plasmodium falciparum (isolate CDC / Honduras)) (UniProt Q27743)",
    "test-result": -1
  },
  {
    "compound": "CCc1c[nH]c2c(N3CCCS3(=O)=O)cc(C(=O)N[C@@H](Cc3ccccc3)[C@H](O)CNC(C)(C)CCCC(C)C)cc12",
    "tgt": "L-lactate dehydrogenase (Plasmodium falciparum (isolate CDC / Honduras)) (UniProt Q27743)",
    "test-result": -2
  },
  {
    "compound": "CCCS(=O)(=O)c1nc(S(=O)(=O)c2ccc(Cl)cc2)c(N2CCCCC2)s1",
    "tgt": "L-lactate dehydrogenase (Plasmodium falciparum (isolate CDC / Honduras)) (UniProt Q27743)",
    "test-result": -3
  },
  {
    "compound": "Oc1cccc(CNCCCN(Cc2ccccc2)c2ccccc2)c1",
    "tgt": "L-lactate dehydrogenase (Plasmodium falciparum (isolate CDC / Honduras)) (UniProt Q27743)",
    "test-result": -6
  },
  {
    "compound": "COc1cccc(Nc2nc(Nc3cccc(C#N)c3)cc(-c3ccncc3)n2)c1",
    "tgt": "L-lactate dehydrogenase (Plasmodium falciparum (isolate CDC / Honduras)) (UniProt Q27743)",
    "test-result": 1
  },
  {
    "compound": "COc1cc2nc(N3CCC(CNC(=O)c4ccc(-c5ccc(C(=O)N(C)C)cc5)c(OCCO)c4)CC3)nc(N)c2cc1OC",
    "tgt": "L-lactate dehydrogenase (Plasmodium falciparum (isolate CDC / Honduras)) (UniProt Q27743)",
    "test-result": -3
  },
  {
    "compound": "COc1ccc(CN2CCC(N3CC(c4ccccc4)(c4ccccc4)OCC3=O)C2)c(O)c1 (centres undefined)",
    "tgt": "L-lactate dehydrogenase (Plasmodium falciparum (isolate CDC / Honduras)) (UniProt Q27743)",
    "test-result": 3
  },
  {
    "compound": "CC(C)Cc1nc(N2CCOCC2)c2nnn(Cc3ccccc3)c2n1",
    "tgt": "L-lactate dehydrogenase (Plasmodium falciparum (isolate CDC / Honduras)) (UniProt Q27743)",
    "test-result": -2
  },
  {
    "compound": "CC(C)CCN1CCC(Oc2cccc(NC(=O)c3ccc(C(F)(F)F)cc3)c2)CC1",
    "tgt": "L-lactate dehydrogenase (Plasmodium falciparum (isolate CDC / Honduras)) (UniProt Q27743)",
    "test-result": -2
  },
  {
    "compound": "COc1ccc(-n2nc(C)c3c2NC(=O)CC3c2ccccc2OCc2ccc(F)cc2)cc1 (centres undefined)",
    "tgt": "L-lactate dehydrogenase (Plasmodium falciparum (isolate CDC / Honduras)) (UniProt Q27743)",
    "test-result": 7
  },
  {
    "compound": "Oc1ccc(CN2CCC(NCc3cccc4ccccc34)CC2)cc1",
    "tgt": "L-lactate dehydrogenase (Plasmodium falciparum (isolate CDC / Honduras)) (UniProt Q27743)",
    "test-result": -3
  },
  {
    "compound": "Cc1cc(Nc2cccc(C(F)(F)F)c2)nc(N)n1",
    "tgt": "L-lactate dehydrogenase (Plasmodium falciparum (isolate CDC / Honduras)) (UniProt Q27743)",
    "test-result": 1
  },
  {
    "compound": "COc1nc2c(N3CCN(CCNCc4ccc5c(n4)NC(=O)CO5)CC3)ccnc2cc1F",
    "tgt": "L-lactate dehydrogenase (Plasmodium falciparum (isolate CDC / Honduras)) (UniProt Q27743)",
    "test-result": -2
  },
  {
    "compound": "O=C(Nc1ccc(N2CCN(C(=O)C=Cc3ccccc3)CC2)c(Cl)c1)c1ccc([N+](=O)[O-])o1",
    "tgt": "L-lactate dehydrogenase (Plasmodium falciparum (isolate CDC / Honduras)) (UniProt Q27743)",
    "test-result": -5
  },
  {
    "compound": "C[C@H](NCCC1CCC(NC(=O)N[C@H](C)C(O)(c2ccccc2)c2ccccc2)CC1)c1cccc2ccccc12 (some centres undefined)",
    "tgt": "L-lactate dehydrogenase (Plasmodium falciparum (isolate CDC / Honduras)) (UniProt Q27743)",
    "test-result": -2
  },
  {
    "compound": "COc1ccc2ncc(F)c([C@H](O)CN3CCC(NCc4ccc5c(c4)NC(=O)CS5)CC3)c2c1",
    "tgt": "L-lactate dehydrogenase (Plasmodium falciparum (isolate CDC / Honduras)) (UniProt Q27743)",
    "test-result": -13
  },
  {
    "compound": "CCOC(=O)N[C@@H]1CN[C@@H](C#Cc2cc3c(Nc4ccc(OCc5cccc(F)c5)c(Cl)c4)ncnc3s2)C1",
    "tgt": "L-lactate dehydrogenase (Plasmodium falciparum (isolate CDC / Honduras)) (UniProt Q27743)",
    "test-result": -3
  },
  {
    "compound": "CC(C)CNCc1cccc(-c2cccc(CN(CCCN3CCN(C)CC3)C(=O)CCC3CCCC3)c2)c1",
    "tgt": "L-lactate dehydrogenase (Plasmodium falciparum (isolate CDC / Honduras)) (UniProt Q27743)",
    "test-result": -7
  },
  {
    "compound": "COc1ccc(OC)c(NC(=O)c2c(-c3c(F)cccc3Cl)noc2C)c1",
    "tgt": "L-lactate dehydrogenase (Plasmodium falciparum (isolate CDC / Honduras)) (UniProt Q27743)",
    "test-result": -1
  },
  {
    "compound": "Cc1cc(N[C@@H](Cc2ccccc2)C(=O)Nc2ccccc2)nc(NCCN2CCCC2)n1",
    "tgt": "L-lactate dehydrogenase (Plasmodium falciparum (isolate CDC / Honduras)) (UniProt Q27743)",
    "test-result": 0
  },
  {
    "compound": "CCc1ccc(-n2cc(C(=O)c3cc(Br)ccc3O)cc(C#N)c2=O)cc1",
    "tgt": "L-lactate dehydrogenase (Plasmodium falciparum (isolate CDC / Honduras)) (UniProt Q27743)",
    "test-result": -2
  },
  {
    "compound": "COc1ccc2nc(-c3ccccc3)cc(NCCN(C)C)c2c1",
    "tgt": "L-lactate dehydrogenase (Plasmodium falciparum (isolate CDC / Honduras)) (UniProt Q27743)",
    "test-result": -3
  },
  {
    "compound": "Oc1ccc(Nc2ccnc3cc(Cl)ccc23)cc1",
    "tgt": "L-lactate dehydrogenase (Plasmodium falciparum (isolate CDC / Honduras)) (UniProt Q27743)",
    "test-result": 0
  },
  {
    "compound": "CNc1ccc(CNCc2cccc(-c3ccc(-c4nc5c(C)cccc5[nH]4)cc3)c2)cc1",
    "tgt": "L-lactate dehydrogenase (Plasmodium falciparum (isolate CDC / Honduras)) (UniProt Q27743)",
    "test-result": -4
  },
  {
    "compound": "N=C1C=C(N)C(=O)c2ccccc21",
    "tgt": "L-lactate dehydrogenase (Plasmodium falciparum (isolate CDC / Honduras)) (UniProt Q27743)",
    "test-result": -2
  },
  {
    "compound": "CCCC(C)N(Cc1ccc(C(C)(C)C)cc1)C(=O)c1cccc(C#N)c1 (centres undefined)",
    "tgt": "L-lactate dehydrogenase (Plasmodium falciparum (isolate CDC / Honduras)) (UniProt Q27743)",
    "test-result": -9
  },
  {
    "compound": "COc1cccc(C(=O)NCCc2cccc(Cl)c2)c1Oc1ccccc1",
    "tgt": "L-lactate dehydrogenase (Plasmodium falciparum (isolate CDC / Honduras)) (UniProt Q27743)",
    "test-result": -1
  },
  {
    "compound": "C(=NNc1cc(-c2ccccc2)nc2ccccc12)c1cccnc1",
    "tgt": "L-lactate dehydrogenase (Plasmodium falciparum (isolate CDC / Honduras)) (UniProt Q27743)",
    "test-result": -1
  }
]
